molecular target: Human NMT1 (HsNMT1) (Homo sapiens, UniProt P30419)
Sequence (P30419 whole entry, looked up): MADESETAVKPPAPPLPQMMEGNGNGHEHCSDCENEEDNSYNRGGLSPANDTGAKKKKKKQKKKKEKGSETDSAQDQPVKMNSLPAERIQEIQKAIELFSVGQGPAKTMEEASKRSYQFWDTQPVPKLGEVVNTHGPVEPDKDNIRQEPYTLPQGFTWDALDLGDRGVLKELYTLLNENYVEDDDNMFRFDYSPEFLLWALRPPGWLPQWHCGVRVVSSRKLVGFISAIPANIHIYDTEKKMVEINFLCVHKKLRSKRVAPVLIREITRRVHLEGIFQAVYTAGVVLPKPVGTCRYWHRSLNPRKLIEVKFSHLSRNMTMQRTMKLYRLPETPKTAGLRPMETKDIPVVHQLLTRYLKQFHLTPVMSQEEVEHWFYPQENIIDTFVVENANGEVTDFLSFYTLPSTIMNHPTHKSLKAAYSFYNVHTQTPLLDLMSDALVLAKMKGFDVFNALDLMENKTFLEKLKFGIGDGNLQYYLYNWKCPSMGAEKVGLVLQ
MEASURED QUANTITY: pIC50
One number for each entry, as −log10 of the molar value.

                                   compound  measured_quantity  observed_measurement
0  Cc1cnc(CNC(=O)C2CN(c3nc(NCCN(C)C)ncc3Cl)C2)cn1 [Comparative Example 1, reference compound]              pIC50                  4.34

Next up:
Which pIC50 reading was recorded for the compound C[C@@H]1CN(c2ncc(F)c(N3CC(C(=O)N(C)C(C)(C)c4cnc5ccccn45)C3)n2)CCN1C [Example 102] ?
7.14

###

assay: in vitro; conditions: male, Sprague-Dawley, rat, pooled cryopreserved rat hepatocytes, pH 7.4
MEASURED QUANTITY: half-life at 1 µM (h)
Give bare numbers, in h.

A selection of reference data follows.
>>> print(df.to_string())
                                  structure  observed_measurement
0  C[C@@H]1CN(c2ncc(F)c(N3CC(C(=O)NC(C)(C)c4cnc5ccccn45)C3)n2)CCN1C                  2.41
1  CN1CCN(c2ncc(Cl)c(N3CC(C(=O)NC(C)(C)c4cnc5ccccn45)C3)n2)CC1                  2.33
2  C[C@H]1CN(c2ncc(Cl)c(N3CCC(C(=O)NC(C)(C)c4cnc5ccccn45)CC3)n2)CCN1C                  1.74

Next up:
Which half-life at 1 µM reading was recorded for the compound C[C@@H]1CN(c2ncc(F)c(N3CC(C(=O)N(C)C(C)(C)c4cnc5ccccn45)C3)n2)CCN1C ?
0.242

###

target: Plasmodium vivax (Pv) NMT (Plasmodium vivax (strain Salvador I), UniProt A5K1A2); assay: biochemical
Sequence (A5K1A2 1-410): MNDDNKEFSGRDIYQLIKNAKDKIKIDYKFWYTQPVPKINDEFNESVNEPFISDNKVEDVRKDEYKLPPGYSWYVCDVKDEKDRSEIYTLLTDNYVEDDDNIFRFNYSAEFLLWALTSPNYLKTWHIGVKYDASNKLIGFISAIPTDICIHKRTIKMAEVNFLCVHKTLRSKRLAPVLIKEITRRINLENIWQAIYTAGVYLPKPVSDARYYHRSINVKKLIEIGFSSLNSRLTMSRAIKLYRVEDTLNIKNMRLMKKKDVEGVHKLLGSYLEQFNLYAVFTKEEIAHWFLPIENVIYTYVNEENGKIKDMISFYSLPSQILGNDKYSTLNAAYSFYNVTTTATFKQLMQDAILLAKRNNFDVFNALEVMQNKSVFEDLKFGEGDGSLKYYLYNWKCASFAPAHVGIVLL
So I've got a bunch of molecules here, and I need their pIC50 values.
One number for each entry, as −log10 of the molar value.

A selection of reference data follows.
                                   molecule                       experimental_system  observed_measurement
0  C[C@@H]1CN(c2ncc(Cl)c(N3CC(C(=O)NC(C)(C)c4cnc5ccccn45)C3)n2)CCN1 [Example 1]  Plasmodium vivax (Pv) NMT (Plasmodium vivax (strain Salvador I), UniProt A5K1A2)                  8.18
1  CC(NC(=O)C1CN(c2nc(N3CCNCC3)ncc2Cl)C1)c1cnc2ccccn12 (stereo not shown) [Example 30]  Plasmodium vivax (Pv) NMT (Plasmodium vivax (strain Salvador I), UniProt A5K1A2)                  8.07
2  COc1cnc(N2CCCNCC2)nc1N1CC(C(=O)NC(C)(C)c2cnc3ccccn23)C1 [Example 20]  Plasmodium vivax (Pv) NMT (Plasmodium vivax (strain Salvador I), UniProt A5K1A2)                  7.80

Under Plasmodium vivax (Pv) NMT (Plasmodium vivax (strain Salvador I), UniProt A5K1A2): pIC50 value of CN1CCCN(c2ncc(Cl)c(N3CC(C(=O)NCc4cnc5ccccn45)C3)n2)CC1 [Example 53] ?
8.24

###

biological target: UniProt:P30419; assay: biochemical
MEASURED QUANTITY: IC50 (nM)
One number for each entry, in nM.

>>> df
                                   compound  output_unit  observed_measurement
0  C[C@@H]1CN(c2ncc(Cl)c(N3CC(C(=O)NC(C)(C)c4cnc5ccccn45)C3)n2)[C@@H](C)CN1           nM                     3
1  CC(NC(=O)C1CN(c2nc(N3CCNCC3)ncc2F)C1)c1cnc2ccccn12 (stereo not shown)           nM                   180
2  Cc1nc2ccccn2c1C(C)NC(=O)C1CN(c2nc(N3CCCNCC3)ncc2Cl)C1 (stereo not shown)           nM                   6.3
3  O=C(NCc1nnc2ccccn12)C1CN(c2nc(N3CCCNCC3)ncc2Cl)C1           nM                   319

List reported IC50 for each of these compounds:
1. C[C@H]1CNCCN1c1ncc(Cl)c(N2CC(C(=O)NC(C)(C)c3cnc4ccccn34)C2)n1
2. C[C@@H]1CN(c2ncc(F)c(N3CC(C)(C(=O)NC(C)(C)c4cnc5ccccn45)C3)n2)CCN1C
3. C[C@@H]1CN(c2ncc(Cl)c(N3CC(C(=O)NC(C)(C)c4cnc5ccccn45)C3)n2)[C@@H](C)CN1C
4. O=C(NCc1cnc2ccccn12)C1CN(c2nc(N3CC4CNC4C3)ncc2Cl)C1 (stereo not shown)
5. C[C@@H]1CN(c2ncc(F)c(N3CC(C(=O)NC(C)(C)c4cnc5ccccn45)C3)n2)CCN1C
6. CN1CCCN(c2ncc(Cl)c(N3CC(C(=O)N(C)C(C)(C)c4cnc5ccccn45)C3)n2)CC1
7. CC(C)N1CCN(c2ncc(Cl)c(N3CC(C(=O)NC(C)(C)c4cnc5ccccn45)C3)n2)CC1

2
150
10
110
33
4
72

List reported IC50 for each of these compounds:
1. CC(C)(NC(=O)C1CN(c2nc(N3CC4CCC(C3)N4)ncc2Cl)C1)c1cnc2ccccn12
2. CC[C@H]1CNCCN1c1ncc(Cl)c(N2CC(C(=O)NC(C)(C)c3cnc4ccccn34)C2)n1
3. COCCN1CCN(c2ncc(Cl)c(N3CC(C(=O)NC(C)(C)c4cnc5ccccn45)C3)n2)CC1
4. C[C@@H]1CN(C)CCN1c1ncc(Cl)c(N2CC(C(=O)NC(C)(C)c3cnc4ccccn34)C2)n1
5. C[C@H]1CN(c2ncc(Cl)c(N3CCC(C(=O)NC(C)(C)c4cnc5ccccn45)CC3)n2)CCN1C
6. C[C@@H]1CN(c2ncc(F)c(N3CCC(C(=O)NC(C)(C)c4cnc5ccccn45)C3)n2)CCN1C (stereo partly shown)
7. CN1CCN(c2ncc(F)c(N3CCC(C(=O)NC(C)(C)c4cnc5ccccn45)C3)n2)CC1 (stereo not shown)
8. C[C@H]1CNCCN1c1nc(N2CC(C(=O)NC(C)(C)c3cnc4ccccn34)C2)c2sccc2n1

1. 5
2. 2
3. 82
4. 88
5. 310
6. 39
7. 190
8. 5

List reported IC50 for each of these compounds:
1. CN(C(=O)C1CN(c2nc(N3CCNC4CC43)ncc2Cl)C1)C(C)(C)c1cnc2ccccn12 (stereo not shown)
2. CN(C(=O)C1CN(c2nc(N3CC4CC3CN4)ncc2Cl)C1)C(C)(C)c1cnc2ccccn12 (stereo not shown)
3. CC(NC(=O)C1CN(c2nc(N3CCNCC3)ncc2Cl)C1)c1cnc2ccccn12 (stereo not shown)
4. CC(C)(NC(=O)C1CN(c2nc(N3CCNCC3)ncc2Cl)C1)c1cnc2ccccn12
5. COc1cnc(N2CCCN(C)CC2)nc1N1CC(C(=O)NC(C)(C)c2cnc3ccccn23)C1
6. C[C@@H]1CN(c2ncc(F)c(N3CC(C(=O)NC(C)(C)c4cnc5ccccn45)C3)n2)C[C@@H](C)N1C
7. CN1CCN(c2ncc(F)c(N3CC(C(=O)N(C)C(C)(C)c4cnc5ccccn45)C3)n2)CC1
8. C[C@H]1CN(c2ncc(Cl)c(N3CC(C(=O)NC(C)(C)c4cnc5ccccn45)C3)n2)[C@@H](C)CN1C

1. 61
2. 190
3. 26
4. 3.5
5. 5
6. 250
7. 400
8. 8

###

system: Plasmodium falciparum 3D7; test: SYBR Green assay, Plasmodium falciparum strain 3D7; format: cell-based; conditions: P. falciparum strain 3D7, 96 h incubation, read-out: Pf EC50 strain 3D7
Define the label as label 1 when EC50 is strictly less than 100 nM and as label 0 in all remaining cases.

>>> df
                                   compound        experimental_system  class_name
0  C[C@@H]1CN(c2ncc(F)c(N3CC(C(=O)N(C)C(C)(C)c4cnc5ccccn45)C3)n2)CCN1C  Plasmodium falciparum 3D7     label 0

hey, is EC50 for CC(NC(=O)C1CN(c2nc(N3CCCNCC3)ncc2Cl)C1)c1cnc2ccccn12 (stereo not shown) lower than 100 nM or not?
label 0

hey, is EC50 for C[C@H]1CN(C)CCN1c1ncc(Cl)c(N2CC(C(=O)N(C)C(C)(C)c3cnc4ccccn34)C2)n1 lower than 100 nM or not?
label 0

hey, is EC50 for C[C@@H]1CN(c2cc(N3CC(C(=O)NC(C)(C)c4cnc5ccccn45)C3)c(F)cn2)CCN1C lower than 100 nM or not?
label 1

hey, is EC50 for CN1CCN(c2ncc(Cl)c(N3CCC(C(=O)NC(C)(C)c4cnc5ccccn45)CC3)n2)CC1 lower than 100 nM or not?
label 0

hey, is EC50 for C[C@@H]1CN(c2ncc(Cl)c(N3CC(C(=O)NC(C)(C)c4cnc5ccccn45)C3)n2)CCN1C lower than 100 nM or not?
label 1
